The reported measurements were obtained from patent US11897862B2.

# study system: IKZF2 (Homo sapiens, UniProt Q96SW2+Q9UKS7)
# Sequence (Q9UKS7 1-500 isoform Q9UKS7-2): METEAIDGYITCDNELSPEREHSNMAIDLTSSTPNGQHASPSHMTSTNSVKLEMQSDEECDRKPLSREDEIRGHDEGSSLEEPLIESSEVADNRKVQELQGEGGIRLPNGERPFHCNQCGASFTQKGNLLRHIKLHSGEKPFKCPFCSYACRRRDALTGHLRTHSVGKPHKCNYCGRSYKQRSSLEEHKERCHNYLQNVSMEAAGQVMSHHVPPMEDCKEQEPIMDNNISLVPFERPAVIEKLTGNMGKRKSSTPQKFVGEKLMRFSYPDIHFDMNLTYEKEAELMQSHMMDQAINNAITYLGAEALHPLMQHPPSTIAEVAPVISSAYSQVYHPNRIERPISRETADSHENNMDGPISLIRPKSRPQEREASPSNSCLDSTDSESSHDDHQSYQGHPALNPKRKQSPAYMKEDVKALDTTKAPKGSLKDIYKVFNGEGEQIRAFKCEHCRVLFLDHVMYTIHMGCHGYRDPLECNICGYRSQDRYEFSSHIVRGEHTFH
# Sequence (Q96SW2 whole entry): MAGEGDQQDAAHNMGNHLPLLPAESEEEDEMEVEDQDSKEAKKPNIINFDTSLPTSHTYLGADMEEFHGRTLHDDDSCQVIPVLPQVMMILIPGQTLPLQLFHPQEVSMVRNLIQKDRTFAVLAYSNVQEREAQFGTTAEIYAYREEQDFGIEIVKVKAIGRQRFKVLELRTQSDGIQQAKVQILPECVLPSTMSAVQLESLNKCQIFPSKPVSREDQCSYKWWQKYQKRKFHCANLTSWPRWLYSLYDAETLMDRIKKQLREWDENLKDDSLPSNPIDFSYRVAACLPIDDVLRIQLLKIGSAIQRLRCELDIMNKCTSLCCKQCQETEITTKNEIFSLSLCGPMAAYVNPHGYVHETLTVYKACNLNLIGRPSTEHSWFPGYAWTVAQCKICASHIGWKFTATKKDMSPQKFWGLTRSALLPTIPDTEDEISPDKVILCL
# Sequence (Q16531 whole entry partner): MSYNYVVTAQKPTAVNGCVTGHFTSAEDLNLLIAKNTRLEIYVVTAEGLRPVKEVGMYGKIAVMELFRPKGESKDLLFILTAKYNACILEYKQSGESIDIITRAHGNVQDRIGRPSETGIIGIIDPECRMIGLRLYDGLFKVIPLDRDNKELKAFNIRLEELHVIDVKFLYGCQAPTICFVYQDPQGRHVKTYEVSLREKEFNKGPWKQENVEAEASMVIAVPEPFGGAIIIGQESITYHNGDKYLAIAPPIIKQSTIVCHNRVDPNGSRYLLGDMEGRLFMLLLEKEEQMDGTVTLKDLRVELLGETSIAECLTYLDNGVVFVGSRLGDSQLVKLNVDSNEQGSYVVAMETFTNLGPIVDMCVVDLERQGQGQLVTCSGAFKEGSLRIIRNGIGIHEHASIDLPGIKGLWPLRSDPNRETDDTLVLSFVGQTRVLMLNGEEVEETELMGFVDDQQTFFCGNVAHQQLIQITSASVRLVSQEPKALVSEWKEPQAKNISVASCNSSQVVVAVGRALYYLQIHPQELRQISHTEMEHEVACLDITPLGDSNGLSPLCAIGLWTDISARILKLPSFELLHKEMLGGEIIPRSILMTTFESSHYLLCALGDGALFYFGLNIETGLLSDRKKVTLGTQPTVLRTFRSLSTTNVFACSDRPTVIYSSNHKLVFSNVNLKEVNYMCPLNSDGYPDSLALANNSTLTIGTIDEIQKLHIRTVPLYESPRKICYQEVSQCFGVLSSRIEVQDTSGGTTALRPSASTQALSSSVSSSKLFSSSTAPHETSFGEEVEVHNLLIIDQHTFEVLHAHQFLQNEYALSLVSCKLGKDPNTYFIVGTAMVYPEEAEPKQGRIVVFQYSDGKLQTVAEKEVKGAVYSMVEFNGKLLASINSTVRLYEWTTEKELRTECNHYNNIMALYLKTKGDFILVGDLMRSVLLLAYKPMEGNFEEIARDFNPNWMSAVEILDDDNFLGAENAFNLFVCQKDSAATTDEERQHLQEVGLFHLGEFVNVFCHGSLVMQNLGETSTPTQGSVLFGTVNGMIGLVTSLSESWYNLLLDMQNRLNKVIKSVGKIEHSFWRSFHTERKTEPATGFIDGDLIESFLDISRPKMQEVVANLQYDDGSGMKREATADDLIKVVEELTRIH
# method description: HEK293 HiBiT in vitro degradation of IKZF2
# Assay type: cell-based
# Parameters: expressed in transfected cells
# experimental parameters: HEK293, HEK293 HiBiT; maximum degradation at the highest concentration tested
# Dmax annotations
Enter your answer as a number in %; do not include the unit.

CCC(C)N[C@H]1CCCO[C@@H]1Cc1ccc2c(c1F)CN(C1CCC(=O)NC1=O)C2=O (some centres unmarked) [Example 304] : 97
CC1CCC(N[C@H]2CCCC[C@@H]2Cc2ccc3c(c2)CN(C2CCC(=O)NC2=O)C3=O)CC1 (single isomer, unassigned) : 95
O=C1CC[C@H](N2Cc3c(ccc(C[C@H]4OCCC[C@@H]4NC4CCC(F)(F)CC4)c3F)C2=O)C(=O)N1 (single isomer, unassigned) : 95
O=C1CCC(N2Cc3cc(C[C@H]4CCCC[C@@H]4NC4CCC(F)(F)CC4)c(F)cc3C2=O)C(=O)N1 (some centres unmarked) : 94
O=C1CCC(N2Cc3cc(C[C@H]4CCCC[C@@H]4NCC4CCOCC4)ccc3C2=O)C(=O)N1 (some centres unmarked) : 89

// query Given O=C1CCC(N2Cc3cc(C[C@H]4CCCC[C@@H]4NCCCC(F)F)ccc3C2=O)C(=O)N1 (some centres unmarked) , state its recorded Dmax.
// result 93

// query Given O=C1CCC(N2Cc3cc(C[C@H]4CCCC[C@@H]4NC4CCS(=O)(=O)CC4)ccc3C2=O)C(=O)N1 (some centres unmarked) , state its recorded Dmax.
// result 97

// query Given Cn1nccc1CN[C@H]1CCCC[C@@H]1Cc1ccc2c(c1)CN(C1CCC(=O)NC1=O)C2=O (some centres unmarked) , state its recorded Dmax.
// result 86

* * *

# study system: IKZF1 (Homo sapiens, UniProt Q13422+Q96SW2)
# Construct: expressed in transfected cells
# Sequence (Q13422 whole entry): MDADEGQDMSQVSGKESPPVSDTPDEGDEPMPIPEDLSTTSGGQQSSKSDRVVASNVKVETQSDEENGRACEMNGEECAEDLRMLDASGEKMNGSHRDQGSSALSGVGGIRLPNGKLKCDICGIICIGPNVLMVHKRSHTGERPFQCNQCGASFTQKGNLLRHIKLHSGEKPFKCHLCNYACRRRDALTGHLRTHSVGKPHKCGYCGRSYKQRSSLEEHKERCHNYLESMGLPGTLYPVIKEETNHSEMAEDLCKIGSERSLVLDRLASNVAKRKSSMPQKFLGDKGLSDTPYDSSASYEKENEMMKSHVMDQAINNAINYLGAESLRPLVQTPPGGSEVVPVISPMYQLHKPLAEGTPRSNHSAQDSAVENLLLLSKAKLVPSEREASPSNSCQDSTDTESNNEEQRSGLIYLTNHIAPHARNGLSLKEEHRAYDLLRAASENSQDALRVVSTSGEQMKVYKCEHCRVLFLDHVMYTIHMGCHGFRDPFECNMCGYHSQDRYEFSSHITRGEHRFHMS
# Sequence (Q96SW2 whole entry): as the sequence (Q96SW2 whole entry) above
# Sequence (Q16531 whole entry partner): as the sequence (Q16531 whole entry partner) above
# method description: HEK293 HiBiT in vitro degradation of IKZF1
# Assay type: cell-based
# experimental parameters: HEK293 HiBiT, 18-24 hr incubation, normalized to DMSO control; read-out: IKZF1 EC50
# DC50 annotations

COC1CCC(NC2CCCOC2Cc2ccc3c(c2F)CN(C2CCC(=O)NC2=O)C3=O)CC1 (stereo not shown) : > 1000 nM
[2H]C1(N[C@H]2CCCC[C@@H]2Cc2ccc3c(c2F)CN(C2CCC(=O)NC2=O)C3=O)CC2(CC2)C1 (stereo partly shown) : 41 nM
CC(N[C@H]1CCCC[C@@H]1Cc1ccc2c(c1)CN(C1CCC(=O)NC1=O)C2=O)C1CCS(=O)(=O)CC1 (single isomer, unassigned) [Example 370] : 117 nM

// query Given O=C1CCC(N2Cc3c(ccc(C[C@H]4OCCC[C@@H]4NC4CCN(CC(F)(F)F)CC4)c3F)C2=O)C(=O)N1 (stereo partly shown) , state its recorded DC50.
// result > 1000 nM

// query Given O=C1CCC(N2Cc3cc(C[C@H]4CCCC[C@@H]4NC4CCc5cn[nH]c5C4)ccc3C2=O)C(=O)N1 (single isomer, unassigned) [Example 358] , state its recorded DC50.
// result 231 nM

// query Given O=C1CCC(N2Cc3cc(C[C@H]4CCCC[C@@H]4NC4CCc5c(C(F)(F)F)n[nH]c5C4)ccc3C2=O)C(=O)N1 (single isomer, unassigned) [Example 362] , state its recorded DC50.
// result 114 nM

// query Given O=C1CC[C@H](N2Cc3c(ccc(C[C@H]4OCCC[C@@H]4N[C@H]4CC[C@H](C(F)F)CC4)c3F)C2=O)C(=O)N1 (single isomer, unassigned) , state its recorded DC50.
// result 37 nM
